- TGT: T1, recombinant human DPEP-1 ectodomain (human, UniProt P16444 17-385, chemically biotinylated with NHS-LC-LC-Biotin in the SPR assay)
- T1 construct: range 17-385; The limits 17-385 are given for the immunogen; also called hDPEP-1 ectodomain; hDPEP-1 ECD
- T1 sequence (looked up): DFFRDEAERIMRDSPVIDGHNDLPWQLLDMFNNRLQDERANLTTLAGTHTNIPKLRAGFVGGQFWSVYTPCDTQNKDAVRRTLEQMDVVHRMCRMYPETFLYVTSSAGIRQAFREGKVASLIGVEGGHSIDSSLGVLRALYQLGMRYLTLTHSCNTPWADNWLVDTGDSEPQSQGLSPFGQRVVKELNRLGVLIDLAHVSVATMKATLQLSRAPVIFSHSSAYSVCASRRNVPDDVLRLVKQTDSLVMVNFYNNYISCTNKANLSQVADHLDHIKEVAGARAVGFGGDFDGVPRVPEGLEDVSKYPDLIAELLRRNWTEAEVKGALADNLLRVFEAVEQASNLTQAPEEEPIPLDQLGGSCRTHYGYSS
- ASSAY REMARKS: SPR, single-cycle kinetics, biotinylated hDPEP-1 ectodomain captured, VHH flowed; mean ± SD of triplicates
OUTCOME MEASURE: pKd
In textbook form, pKd equals minus log to base ten of the concentration in mol/L.

Worked cases, answers included:
INSERT INTO assay_data (binder, reported_measurement) VALUES
  ('sdABP06 (VHH with BAP and His6 tags) (VHH, biotin on the Biotinylation Acceptor Peptide in the flow cytometry and immunoprecipitation assays, Monomeric llama VHH with BAP and His6; also called sdAb06) VHH: EVQLVDSGGGLVQPGGSLRLSCAASGFTFSNYDMSWVRQGPGKGPEWVSIISYVGGLTRYSDSVKGRFTISRDNAKNTLYLQMNSLNTEDTALYYCARVKSMHPTSTTGEYDYRGRGTQVTVSS', 8.20),
  ('sdABP03 (VHH with BAP and His6 tags) (VHH, biotin on the Biotinylation Acceptor Peptide in the flow cytometry and immunoprecipitation assays, Monomeric llama VHH with BAP and His6; also called sdAb03) VHH: EVQLVESGGGLVQPGGSLRLSCATSEFTLDYYAIGWFRQAPGKEREGVSCISSSGGTTNYADSVKGRFTISSDNAKNTVSLQMNSLRPEDTAVYYCAAARVSAYYLGNYGCLNAEYGYWGQGTQVTVSS', 7.57),
  ('sdABP07 (VHH with BAP and His6 tags) (VHH, biotin on the Biotinylation Acceptor Peptide in the flow cytometry and immunoprecipitation assays, Monomeric llama VHH with BAP and His6; also called sdAb07) VHH: EVQLVESGGGLVEYGGSLRLSCAASESTLDNYAIAWFRQAPGKEREVVSCVGKSGGRSDYADSVKGRFTISRDNAKNTVYLQMNSLKPEDTAVYSCAARRVWFGGCVLGTSQGQYDYWGQGTQVTVSS', 8.29);

Please turn your attention to the following entry.
stdin: Input sdABP05 (VHH with BAP and His6 tags) (VHH, biotin on the Biotinylation Acceptor Peptide in the flow cytometry and immunoprecipitation assays, Monomeric llama VHH with BAP and His6; also called sdAb05) VHH: EVQLVESGGGLVQPGGSLRLSCAASGFTFSTYAMTWVRKAPGKGFEWISSIDSGGGVTLYADSVKGRFTISKDNAKNTLYLQMNNLKPDDTAVYYCVKNYGSTSLQSRGQGTQVTVSS , output reported pKd.
stdout: 7.97
